system-name: Cytochrome P450 1A2 (Homo sapiens, UniProt P05177); further: in other assays of this panel Not Active means under 50% inhibition at 10 µM
Sequence (P05177 whole entry): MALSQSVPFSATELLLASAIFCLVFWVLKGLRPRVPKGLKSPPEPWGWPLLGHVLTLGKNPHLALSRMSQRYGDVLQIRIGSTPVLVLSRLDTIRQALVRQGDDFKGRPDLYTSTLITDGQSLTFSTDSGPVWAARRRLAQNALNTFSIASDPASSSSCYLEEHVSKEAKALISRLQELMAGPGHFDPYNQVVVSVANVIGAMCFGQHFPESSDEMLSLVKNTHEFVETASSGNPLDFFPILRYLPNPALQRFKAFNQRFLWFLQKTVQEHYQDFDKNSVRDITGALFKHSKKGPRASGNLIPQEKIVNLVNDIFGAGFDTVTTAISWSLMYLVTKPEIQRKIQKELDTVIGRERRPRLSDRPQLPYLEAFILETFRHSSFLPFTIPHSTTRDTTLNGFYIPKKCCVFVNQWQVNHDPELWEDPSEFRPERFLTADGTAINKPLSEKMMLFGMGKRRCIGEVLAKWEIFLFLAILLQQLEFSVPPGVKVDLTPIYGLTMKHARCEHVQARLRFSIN
conditions: bti-tn-5b1-4
observation-type: IC50

- compound: "CC1CC(OC(=O)C(O)c2ccccc2)CC(C)(C)C1 (centres undefined) [CYCLANDELATE]"
  observation-type: "IC50"
  endpoint-value: "Not Active"
- compound: "CCCCc1nc(Cl)c(CO)n1Cc1ccc(-c2ccccc2-c2nnn[nH]2)cc1 [LOSARTAN]"
  observation-type: "IC50"
  endpoint-value: "Not Active"
- compound: "CC[C@@H](CO)NC(=O)[C@@H]1C=C2c3cccc4[nH]cc(c34)C[C@H]2N(C)C1 [METHYLERGONOVINE]"
  observation-type: "IC50"
  endpoint-value: "Not Active"
- compound: "CC(C)N1CCN(c2ccc(OCC3COC(Cn4cncn4)(c4ccc(Cl)cc4Cl)O3)cc2)CC1 (centres undefined) [TERCONAZOLE]"
  observation-type: "IC50"
  endpoint-value: "Not Active"

###

method: DRUGMATRIX: GABAA, Flunitrazepam, Central radioligand binding (ligand: [3H] Flunitrazepam)
Assay type: cell membranes, Rattus norvegicus, Wistar, Brain, Membrane
conditions: Not Active = under 50% inhibition at 10 µM
observation-type: IC50

- molecule: "CCCCN1CCCC[C@H]1C(=O)Nc1c(C)cccc1C"
  endpoint-value: "Not Active"
- molecule: "CC(C)[C@@]1(NC(=O)[C@@H]2C[C@@H]3c4cccc5[nH]cc(c45)C[C@H]3N(C)C2)O[C@@]2(O)[C@@H]3CCCN3C(=O)[C@H](Cc3ccccc3)N2C1=O.CS(=O)(=O)O [DIHYDROERGOCRISTINE MESYLATE]"
  endpoint-value: "Not Active"
- molecule: "CC(=O)[C@@]1(O)CC[C@H]2[C@@H]3C[C@H](C)C4=CC(=O)CC[C@]4(C)[C@H]3CC[C@@]21C"
  endpoint-value: "Not Active"
- molecule: "Nc1c2c(nc3ccccc13)CCCC2"
  endpoint-value: "Not Active"
- molecule: "CC(C)[C@H]1C(=O)N2CCC[C@H]2[C@]2(O)O[C@](NC(=O)[C@@H]3C=C4c5cccc6[nH]cc(c56)C[C@H]4N(C)C3)(C(C)C)C(=O)N12"
  endpoint-value: "Not Active"
- molecule: "CC(=O)O[C@@]12CO[C@@H]1C[C@H](O)[C@@]1(C)C(=O)[C@H](O)C3=C(C)[C@@H](OC(=O)[C@H](O)[C@@H](NC(=O)OC(C)(C)C)c4ccccc4)C[C@@](O)([C@@H](OC(=O)c4ccccc4)[C@H]21)C3(C)C.O.O.O"
  endpoint-value: "Not Active"
- molecule: "N[C@@H]1[C@H]2CN(c3nc4c(cc3F)c(=O)c(C(=O)O)cn4-c3ccc(F)cc3F)C[C@@H]12"
  endpoint-value: "Not Active"
- molecule: "CCCN1C[C@H](CSC)C[C@@H]2c3cccc4[nH]cc(c34)C[C@H]21 [PERGOLIDE]"
  endpoint-value: "Not Active"
- molecule: "c1ccc2c(c1)c1cccc3ccc4cccc2c4c31 [BENZO[E]PYRENE]"
  endpoint-value: "Not Active"
- molecule: "Cc1noc(NS(=O)(=O)c2ccc(N)cc2)c1C"
  endpoint-value: "Not Active"
- molecule: "CCCC1O[C@@H]2C[C@H]3[C@@H]4CCC5=CC(=O)C=C[C@]5(C)[C@H]4[C@@H](O)C[C@]3(C)[C@]2(C(=O)CO)O1 (stereo partly drawn) [BUDESONIDE]"
  endpoint-value: "Not Active"
- molecule: "c1ccc(Nc2ccc(Nc3ccccc3)cc2)cc1"
  endpoint-value: "Not Active"
- molecule: "CNCCCN1c2ccccc2CCc2ccccc21"
  endpoint-value: "Not Active"
- molecule: "CC(C)(C)NCC(O)c1cc(Cl)c(N)c(Cl)c1 (stereo not drawn)"
  endpoint-value: "Not Active"
- molecule: "CCCCc1nc(Cl)c(CO)n1Cc1ccc(-c2ccccc2-c2nnn[nH]2)cc1"
  endpoint-value: "Not Active"
- molecule: "Sc1ncnc2nc[nH]c12 [MERCAPTOPURINE ANHYDROUS]"
  endpoint-value: "Not Active"
- molecule: "C[C@H]1O[C@@H](O[C@H]2[C@@H](O)C[C@H](O[C@H]3[C@@H](O)C[C@H](O[C@H]4CC[C@@]5(C)[C@H](CC[C@@H]6[C@@H]5C[C@@H](O)[C@]5(C)[C@@H](C7=CC(=O)OC7)CC[C@]65O)C4)O[C@@H]3C)O[C@@H]2C)C[C@H](O)[C@@H]1O"
  endpoint-value: "Not Active"
- molecule: "CCOC(=O)C1=C(COCCN)NC(C)=C(C(=O)OC)C1c1ccccc1Cl (stereo not drawn)"
  endpoint-value: "Not Active"
- molecule: "Clc1cccc(Cl)c1NC1=NCCN1"
  endpoint-value: "Not Active"
- molecule: "N=C(N)NCCN1CCCCCCC1"
  endpoint-value: "Not Active"
- molecule: "Cc1onc(O)c1CC(N)C(=O)O (racemic) [(R,S)-AMPA]"
  endpoint-value: "Not Active"
- molecule: "N#CC(C#N)=Cc1ccc(O)c(O)c1"
  endpoint-value: "Not Active"
- molecule: "N[C@@H](Cc1ccc(N(CCCl)CCCl)cc1)C(=O)O"
  endpoint-value: "Not Active"
- molecule: "CC[C@]1(O)C[C@H]2CN(CCc3c([nH]c4ccccc34)[C@@](C(=O)OC)(c3cc4c(cc3OC)N(C=O)[C@H]3[C@@](O)(C(=O)OC)[C@H](OC(C)=O)[C@]5(CC)C=CCN6CC[C@]43[C@@H]65)C2)C1"
  endpoint-value: "Not Active"
- molecule: "Cc1ccc(N(CC2=NCCN2)c2cccc(O)c2)cc1"
  endpoint-value: "Not Active"
- molecule: "COc1cc2c3cc1Oc1cc(ccc1O)C[C@@H]1c4c(cc(OC)c(O)c4Oc4ccc(cc4)C[C@@H]3N(C)CC2)CC[N+]1(C)C.[Cl-]"
  endpoint-value: "Not Active"
- molecule: "Cc1ccc(-c2cc(C(F)(F)F)nn2-c2ccc(S(N)(=O)=O)cc2)cc1"
  endpoint-value: "Not Active"
- molecule: "C[C@]12CCC(=O)C=C1CC[C@@H]1[C@@H]2CC[C@@]2(C)[C@H]1CC[C@]2(C)O"
  endpoint-value: "Not Active"
- molecule: "NCCCCCC(=O)O"
  endpoint-value: "Not Active"
- molecule: "CN(C)C(=O)Oc1cc(OC(=O)N(C)C)cc(C(O)CNC(C)(C)C)c1 (stereo not drawn)"
  endpoint-value: "Not Active"
- molecule: "CN(C)CCCN1c2ccccc2Sc2ccc(Cl)cc21"
  endpoint-value: "Not Active"
- molecule: "COc1cc2nc(N3CCN(C(=O)C4COc5ccccc5O4)CC3)nc(N)c2cc1OC (stereo not drawn)"
  endpoint-value: "Not Active"
- molecule: "O=c1oc2ccccc2c(O)c1Cc1c(O)c2ccccc2oc1=O"
  endpoint-value: "Not Active"
